target: T1, human Galectin-3 (Gal3), full-length recombinant (human, UniProt P17931 2-250); assay: blocking ELISA, Gal3 coated, PDGFR alpha-Fc, antibody 20 µg/ml
T1 construct: treated here as one molecule; also called hGAL3; hGal3
T1 sequence (P17931 2-250 limits assumed): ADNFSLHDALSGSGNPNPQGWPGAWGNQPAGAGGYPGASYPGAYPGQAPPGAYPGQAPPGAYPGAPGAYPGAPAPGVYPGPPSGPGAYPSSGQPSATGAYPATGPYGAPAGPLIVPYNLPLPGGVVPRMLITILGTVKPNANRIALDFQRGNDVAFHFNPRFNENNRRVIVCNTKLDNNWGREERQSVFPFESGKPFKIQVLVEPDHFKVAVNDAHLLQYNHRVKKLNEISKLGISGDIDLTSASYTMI
Readout Label: % blocking of Gal3-PDGFR alpha binding

Give the measured % blocking of Gal3-PDGFR alpha binding of mTB001 (antibody, mouse IgG2a, V domains shown, also called mIMT001; murine IMT001) VH: QIQLVQSGPELKKPGETVKISCKASGYTFTNYGMNWVKQAPGKGLKWMGWINTNTGEPTYVEEFKGRFAFSLETSASTAYLQINNLKNEDTATYFCAPYDNFFAYWGQGTLVTVSA VL: DIVITQDELSNPVTSGESVSISCRSSKSLLYKDGKTYLNWFLQRPGQSPQLLIYLMSTHASGVSDRFSGSGSGTDFTLEISRVKAEDVGVYYCQQLVDYPLTFGAGTKLELKR .
> 70%
